Target: FXR (Homo sapiens)
Sequence (Q96RI1 1-486): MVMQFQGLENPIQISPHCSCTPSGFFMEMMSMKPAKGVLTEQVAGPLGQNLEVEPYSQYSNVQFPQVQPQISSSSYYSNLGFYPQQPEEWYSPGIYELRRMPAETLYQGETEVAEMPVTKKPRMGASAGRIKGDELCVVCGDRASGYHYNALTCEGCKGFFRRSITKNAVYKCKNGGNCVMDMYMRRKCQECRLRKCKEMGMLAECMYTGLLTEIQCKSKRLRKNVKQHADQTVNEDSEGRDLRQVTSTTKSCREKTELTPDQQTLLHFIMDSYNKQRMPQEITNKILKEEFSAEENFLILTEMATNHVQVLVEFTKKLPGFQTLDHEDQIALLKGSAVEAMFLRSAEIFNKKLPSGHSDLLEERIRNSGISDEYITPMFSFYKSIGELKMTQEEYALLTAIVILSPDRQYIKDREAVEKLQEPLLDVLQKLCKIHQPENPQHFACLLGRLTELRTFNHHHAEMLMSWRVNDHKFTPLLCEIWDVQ
Sequence (P19793 1-462 partner): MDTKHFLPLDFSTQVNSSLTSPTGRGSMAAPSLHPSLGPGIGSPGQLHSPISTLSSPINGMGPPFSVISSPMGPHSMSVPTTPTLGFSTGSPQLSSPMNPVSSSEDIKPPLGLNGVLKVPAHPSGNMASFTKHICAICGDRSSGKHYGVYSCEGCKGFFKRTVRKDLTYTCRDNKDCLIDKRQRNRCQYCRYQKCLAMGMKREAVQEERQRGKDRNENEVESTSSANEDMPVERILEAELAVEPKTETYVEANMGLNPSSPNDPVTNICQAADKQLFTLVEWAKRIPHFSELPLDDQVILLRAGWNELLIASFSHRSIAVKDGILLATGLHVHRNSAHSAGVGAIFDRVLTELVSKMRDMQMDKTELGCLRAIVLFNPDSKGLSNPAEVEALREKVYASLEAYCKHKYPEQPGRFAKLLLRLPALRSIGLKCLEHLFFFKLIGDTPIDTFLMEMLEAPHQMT
Experiment: In Vitro FXR Assay (TK): TK-ECRE-luc reporter in transfected CV-1 cells
Settings: CV-1 cells transfected with hFXR, hRXR, 18 h incubation, luminescence
EC50 reference
measurement kind: EC50

compound	measurement kind	readout value
COC(=O)/C=C/c1cccc(N(Cc2ccc(-c3ccc(N(C)C)c(C#N)c3)cc2)C(=O)C2CCCCC2)c1 [compound 72]	EC50	≤ 1 µM
CN(C)c1ccc(-c2ccc(CN(C(=O)C3CCCCC3)c3cccc(/C=C/C(=O)OCC(F)(F)F)c3)cc2)cc1 [86.6]	EC50	1 to 10 µM
COC(=O)/C=C/c1cccc(N(Cc2ccc(-c3cccc(C#N)c3)cc2)C(=O)C2CCCCC2)c1 [compound 24]	EC50	≤ 1 µM

###

pEC50 reference
Target: FXR (Homo sapiens, UniProt Q96RI1)
Assay: In Vitro FXR Assay (TK): TK-ECRE-luc reporter in transfected CV-1 cells
Conditions: CV-1 cells transfected with hFXR, hRXR, 18 h incubation, luminescence
pEC50: −log10 of the molar value.
measurement kind: pEC50

compound	measurement kind	readout value
COC(=O)/C=C/c1cccc(N(Cc2ccc(-c3ccccc3F)cc2)C(=O)C2CCCCC2)c1	pEC50	5.00 to 6.00
COC(=O)/C=C/c1cccc(N(Cc2ccc(-c3ccc(N(C)C)cc3)cc2)C(=O)c2ccccc2OC)c1	pEC50	≥ 6.00
COC/C=C/c1cccc(N(Cc2ccc(-c3ccc(N(C)C)cc3)cc2)C(=O)C2CCCCC2)c1	pEC50	5.00 to 6.00
COC(=O)/C=C/c1cccc(N(Cc2ccc(-c3ccc(N(C)C)cc3)cc2)C(=O)C2COCCO2)c1 (centres unmarked)	pEC50	5.00 to 6.00
COC(=O)/C=C/c1cccc(N(Cc2ccc(-c3ccc(N(C)C)cc3)cc2)C(=O)C2COC2)c1	pEC50	5.00 to 6.00
COC(=O)/C=C/c1cccc(N(Cc2ccc(-c3ccc(N(C)C)cc3)cc2)C(=O)[C@H]2CC[C@H](O)CC2)c1	pEC50	≥ 6.00
COC(=O)/C=C/c1cccc(N(Cc2ccc(-c3cnc(N(C)C)nc3)cc2)C(=O)C2CCCCC2)c1	pEC50	≥ 6.00
COC(=O)/C=C/c1cccc(N(Cc2ccc(-c3ccc(N(C)C)cc3)cc2)C(=O)C2CCC([S+](C)[O-])CC2)c1 (centres unmarked)	pEC50	5.00 to 6.00
COC(=O)/C=C/c1cccc(N(Cc2ccc(-c3ccc(OC(C)C)cc3)cc2)C(=O)C2CCCCC2)c1	pEC50	5.00 to 6.00
COC(=O)/C=C/c1cccc(N(Cc2ccc(-c3ccc(N(C)C)cc3)cc2)C(=O)[C@H]2CC[C@H](NC(=O)OC(C)(C)C)CC2)c1	pEC50	≥ 6.00
COC(=O)/C=C/c1cccc(N(Cc2ccc(-c3ccc(N(C)C)cc3)cc2)C(=O)C2CCC(SC)CC2)c1 (centres unmarked)	pEC50	5.00 to 6.00
COC(=O)/C=C/c1cccc(N(Cc2ccc(-c3ccccc3C#N)cc2)C(=O)C2CCCCC2)c1	pEC50	5.00 to 6.00
COC(=O)/C=C/c1cccc(N(Cc2ccc(-c3ccc(N(C)C)cc3)cc2)C(=O)c2ccc(OCCN3CCOCC3)cc2)c1	pEC50	5.00 to 6.00
COC(=O)/C=C/c1cccc(N(Cc2ccc(-c3ccc(N(C)C)cc3)cc2)C(=O)C2CCNC(=O)C2)c1 (centres unmarked)	pEC50	5.00 to 6.00
COC(=O)/C=C/c1cccc(N(Cc2ccc(-c3ccc(N(C)S(C)(=O)=O)cc3)cc2)C(=O)C2CCCCC2)c1	pEC50	5.00 to 6.00
COC(=O)/C=C/c1cccc(N(Cc2ccc(-c3ccc(N(C)C)cc3)cc2)C(=O)CC(C)(C)C)c1	pEC50	≥ 6.00
CN(C)c1ccc(-c2ccc(CN(C(=O)C3CCCCC3)c3cccc(/C=C/C(=O)OCC4CCCO4)c3)cc2)cc1 (centres unmarked)	pEC50	< 5.00
CC(C)=CCc1cccc(N(Cc2ccc(-c3ccc(N(C)C)cc3)cc2)C(=O)C2CCCCC2)c1	pEC50	< 5.00
CC(C)COC(=O)/C=C/c1cccc(N(Cc2ccc(-c3ccc(N(C)C)cc3)cc2)C(=O)C2CCCCC2)c1	pEC50	< 5.00
COC(=O)/C=C/c1cc(N(Cc2ccc(-c3ccc(N(C)C)cc3)cc2)C(=O)C2CCCCC2)cc(C(F)(F)F)c1	pEC50	5.00 to 6.00
COC(=O)/C=C/c1cccc(N(Cc2ccc(-c3ccc(N(C)C)cc3)cc2)C(=O)[C@H]2CC[C@@H](OC)CC2)c1	pEC50	≥ 6.00
COC(=O)/C=C/c1cccc(N(Cc2ccc(-c3cccc(C(F)(F)F)c3)cc2)C(=O)C2CCCCC2)c1	pEC50	5.00 to 6.00
COC(=O)/C=C/c1cccc(N(Cc2ccc(-c3ccc(N(C)C)cc3)cc2)C(=O)c2ccc(OCCO)cc2)c1	pEC50	≥ 6.00

Cited source for all entries: patent US10626081B2
